Cited source: paper PMC7522027

measure_name: IC50 (nM)
Enter your answer as a number in nM; do not include the unit.

Ask: Give IC50 (UniProtKB P36896) of the following molecule: CC(=O)C1=C(O)C=C2Oc3c(C(N)=O)c(O)cc(O)c3[C@]2(C)C1=O [cercosporamide, Cercosporamide]
Sequence (P36896 24-505): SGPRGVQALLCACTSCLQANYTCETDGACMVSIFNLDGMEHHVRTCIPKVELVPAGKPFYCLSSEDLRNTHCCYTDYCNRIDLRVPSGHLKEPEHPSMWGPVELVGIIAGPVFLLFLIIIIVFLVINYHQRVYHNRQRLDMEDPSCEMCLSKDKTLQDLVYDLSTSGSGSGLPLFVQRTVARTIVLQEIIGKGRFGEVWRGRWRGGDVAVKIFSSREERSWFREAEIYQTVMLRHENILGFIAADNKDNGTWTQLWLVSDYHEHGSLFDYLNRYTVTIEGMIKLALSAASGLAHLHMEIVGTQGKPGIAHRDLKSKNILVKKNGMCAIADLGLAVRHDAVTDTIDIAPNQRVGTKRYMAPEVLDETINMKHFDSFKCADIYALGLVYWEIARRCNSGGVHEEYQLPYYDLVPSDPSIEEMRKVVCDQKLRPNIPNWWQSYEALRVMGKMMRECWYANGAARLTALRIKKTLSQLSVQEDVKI
Result: 150

====

measure_name: IC50 (nM)
Hi! Could you send only the number? It should be in nM, unit omitted.

Ask: Please provide the recorded IC50 for CC(=O)C1=C(O)C=C2Oc3c(C(N)=O)c(O)cc(O)c3[C@]2(C)C1=O [cercosporamide, Cercosporamide] , tested on TGFB-R1 (ALK5) (Homo sapiens).
Sequence (P36897 34-503): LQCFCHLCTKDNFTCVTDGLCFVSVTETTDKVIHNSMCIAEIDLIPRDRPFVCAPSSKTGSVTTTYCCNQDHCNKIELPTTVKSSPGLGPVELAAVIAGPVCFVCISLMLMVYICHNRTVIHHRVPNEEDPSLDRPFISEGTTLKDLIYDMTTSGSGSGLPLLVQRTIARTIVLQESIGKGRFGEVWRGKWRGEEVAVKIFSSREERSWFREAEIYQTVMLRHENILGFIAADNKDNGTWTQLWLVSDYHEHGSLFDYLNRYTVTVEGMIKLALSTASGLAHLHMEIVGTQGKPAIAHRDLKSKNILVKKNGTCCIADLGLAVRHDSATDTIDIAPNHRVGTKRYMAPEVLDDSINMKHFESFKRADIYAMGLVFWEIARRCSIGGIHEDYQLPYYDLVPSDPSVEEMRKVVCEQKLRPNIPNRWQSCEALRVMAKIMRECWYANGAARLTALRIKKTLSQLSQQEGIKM
Result: 290
